Attribution: paper PMC11407620

tested on: cancer cell lines; assay: Cancer cell proliferation, pooled over the cell lines of Table 1; format: cell-based, human; details: Homo sapiens; cancer cells; 24 h; read-out: IC50 values on cancer cell proliferation (range over cell lines)
pIC50: −log10 of the molar value.
experimental readout: pIC50

[in] Quick one: give measured pIC50 for `CCC(C)(C)C(=O)O[C@H]1C[C@@H](C)C=C2C=C[C@H](C)[C@H](CC[C@@H]3C[C@@H](O)CC(=O)O3)[C@H]21`
[out] 3.83 to 4.51

[in] Quick one: give measured pIC50 for C1CCC(C(CC2CCCCN2)C2CCCCC2)CC1 (centres unmarked)
[out] 4.70 to 5.40

---

test system: Cervix HeLa cells; experiment: Cell proliferation, 24 h drug exposure; type: cell-based, human; conditions: Cervix HeLa; 24 h; read-out: IC50 for proliferation cell rate
experimental readout: pIC50
Interpret pIC50 as the negative base-10 log of the concentration measured in mol/L.

[in] Quick one: give measured pIC50 for `CC(=O)OC[C@H]1O[C@@H]([S-])[C@H](OC(C)=O)[C@@H](OC(C)=O)[C@@H]1OC(C)=O.CCP(CC)CC.[Au+]`
[out] 5.77

---

tested on: Colorectal COLO205 cells; test: Cell proliferation, 24 h drug exposure; format: cell-based, human; settings: Homo sapiens, COLO 205; Colorectal COLO205; 24 h; read-out: IC50 for proliferation cell rate
experimental readout: pIC50
Interpret pIC50 as the negative base-10 log of the concentration measured in mol/L.

[in] Quick one: give measured pIC50 for C1CCC(C(CC2CCCCN2)C2CCCCC2)CC1 (stereo not shown)
[out] 4.80

---

system: Breast MCF-7 cells; test: Cell proliferation, 24 h drug exposure; type: cell-based, human; conditions: Homo sapiens, MCF7; Breast MCF-7 (low metastatic); 24 h; read-out: IC50 for proliferation cell rate
Give pIC50 for every item shown.
Interpret pIC50 as the negative base-10 log of the concentration measured in mol/L.

[in] Quick one: give measured pIC50 for C1CCC(C(CC2CCCCN2)C2CCCCC2)CC1 (stereo not shown)
[out] 4.69

[in] Quick one: give measured pIC50 for `CCC(C)(C)C(=O)O[C@H]1C[C@@H](C)C=C2C=C[C@H](C)[C@H](CC[C@@H]3C[C@@H](O)CC(=O)O3)[C@H]21`
[out] 3.90

---

test system: Breast MDA-MB-231 cells; assay: Cell proliferation, 24 h drug exposure; assay type: cell-based, human; settings: Breast MDA-MB-231; 24 h; read-out: IC50 for proliferation cell rate
experimental readout: IC50 (µM)
Report the value in µM with no unit label.

[in] Quick one: give measured IC50 for `CC(=O)OC[C@H]1O[C@@H]([S-])[C@H](OC(C)=O)[C@@H](OC(C)=O)[C@@H]1OC(C)=O.CCP(CC)CC.[Au+]`
[out] 0.8

[in] Quick one: give measured IC50 for N.N.[Cl][Pt][Cl] [CP, cisplatin]
[out] 72
